system: K4 kissing-loop RNA reporter; assay: apparent KD of K4 kissing-loop reporter; higher = weaker reporter binding; conditions: Eterna round: R107; input ligand: tryptophan 2.4 mM;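 further: bound reporter read as fluorescence of individual clusters on recovered sequencing chips by microscopy, with normalized cluster intensities fitted with a binding model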
The sequences listed here are annotated with their apparent KD of K4 kissing-loop reporter.

sequence_chain: GCUGAGGAGUGAUGUUCCAAGUGAUGUUAACGAGGACCGGUACGGCCGCCACUCGAUACGGCCGGACCGUAAGAUAAACUACAGC [Same State - Tryptophan A (Freestyle 7)]
apparent KD of K4 kissing-loop reporter [nM]: 315
//
sequence_chain: GGAGUUACCUGGGAUACCAGUCGGAGUCUCAGAGCUCGGAGUGAUGUUCUGGGAUGUUUCGGCCCUUGGCAGCUCUGGGACUCCA [#2 Exclusion - Theophylline B Attempt #16 (HarryS)]
apparent KD of K4 kissing-loop reporter [nM]: 707
//
sequence_chain: GGCCAAAGAGAGUGAUGUUCUCAAUAUGAAGGAGCGCCCGAAAGGGCAGGUAGGUCGCAUAACGGCCACCUACGAAAAGUAGGAA [#SwitchBubble 4 #K4Early]
apparent KD of K4 kissing-loop reporter [nM]: 96.5
//
sequence_chain: UCGUCUGUGUGAGGAUAUCCAAGCGAGCUGCGUACAGGUGCGGCGUUUGGAGUGAUGUUCCAGGCAGGAGAAGGCGCACGGGCUU [Esored]
apparent KD of K4 kissing-loop reporter [nM]: 251
//
sequence_chain: AUUUUUUUGUCAGGAUAUUAGUAUGGUUUUGGUUUGUUAGUGAUGUUGAUAUUUUGUUUAUGUAUUUAAGAAGGGAUUUAGCGGU [gyhhgumullin]
apparent KD of K4 kissing-loop reporter [nM]: 320

* * *

system: MS2 coat protein; assay: apparent KD of MS2 coat protein; designed switch direction (-1 OFF switch, 1 ON switch): -1; higher = weaker reporter binding; details: Eterna round: R95; input ligand: microRNA oligo, concentration not stated
Recorded apparent KD of MS2 coat protein, one value per entry.
measured_metric: apparent KD of MS2 coat protein

sequence_chain: AAAUAAGAAGGAUAUACAAAUUAAAAGGUCCUUAAGGCAAGACAUGAGGAUCACCCAUGUAGAAGGUCUGAAAA [Teati] (puzzle: Exclusion 2)
result: 0.023 µM

sequence_chain: CACAAGCUUUUUUGAUGCAUUUUAGUUGGUUGCCUUUUUACAUGAGGAUCACCCAUGUUUGUGUAGCUCGAUCUUUU [JR_SV3TOV2_Sub078] (puzzle: Sensor v3, turn-off variant 2)
result: 0.029 µM

sequence_chain: GAUAAGGUAGGAUAUACGAAGAAAGAGGGUAGUAAUAAUACACAUGAGGAUCACCCAUGUAGAAGGACCAAUAG [Mat - Exclusion 2 - Mod of my Tesla design - D43] (puzzle: Exclusion 2)
result: 0.026 µM

sequence_chain: UGCUAGUCAGGAUAUACGAACAUGUCAAAAGACGUGAAGGGACAUGAGGAUCACCCAUGUAGAAGGGACUAGCC [salish99_ex2_r3_008] (puzzle: Exclusion 2)
result: 0.0255 µM

sequence_chain: CUGUAACGAGCGUGAGCCUACAUGAGGAUCACCCAUGUGCUCGUCUUAUAACGUACUGUCACGUUAGUGAUAGUGCG [Sensor v3, turn-off variant 1 (MOD of Eli's v1-13 v.3)] (puzzle: Sensor v3, turn-off variant 1)
result: 0.297 µM

sequence_chain: GAGGAGGUAGGAUAUACGAUAAUAUAGGGUAGAUAUAUAACACAUGAGGAUCACCCAUGUAGAAGGACCAGGAG [Mat - Exclusion 2 - Mod of my Tesla design - D64] (puzzle: Exclusion 2)
result: 0.0367 µM

sequence_chain: GAUUAUGCGAGCUUUAGGGACAUGAGGAUCACCCAUGUUCGUCUUAUUGGUCUAGGUGCACUGACAUACCUAAAUCU [JMF 91] (puzzle: Sensor v3, turn-off variant 1)
result: 0.0349 µM

sequence_chain: AAGUACCGUCACGAUAGUGAUGGUACAGCAAGCAUGUAAACAUGAGGAUCACCCAUGUCCUCAAUUGCUCGUCUUAU [Sensor 3 - 70] (puzzle: Sensor v3, turn-off variant 2)
result: 0.785 µM

sequence_chain: GAUAAGGUAGGAUAUACGAAGAAAGAGGGUAGUAAUAAUACACAUGAGGAUCACCCAUGUAGAAGGACCAAGAG [Mat - Exclusion 2 - Mod of my Tesla design - D44] (puzzle: Exclusion 2)
result: 0.023 µM

sequence_chain: GCAAAGGUAGGAUAUCCACUGUGCAACAUGAGGAUCACCCAUGUGGUUCUUACCAUAAUUGGAGAAGGGCCGUGCA [Inrariri] (puzzle: Exclusion 5)
result: 0.0193 µM

sequence_chain: GGCUAGUGAGGAUAUACGUGCACUCCUCAGUCGCCAGUCGGACAUGAGGAUCACCCAUGUAGAAGGUAUCGGCA [Qusoceus] (puzzle: Exclusion 2)
result: 0.024 µM

sequence_chain: UACUACGCAGGAUAUACAUGAGGAUCACCCAUGUGUCUGCGAUAGGCACGUGAAAUCCGUAGAAGGGUGUAGAU [Exclusion 3 - Oddities v.2] (puzzle: Exclusion 3)
result: 0.0359 µM
